Values were extracted from PubChem BioAssay AID179.

Tested on: CEM cells HIV-1 protection, formazan growth assay
Experiment: NCI AIDS Antiviral Assay
Measurement Parameters: measured here: growth of uninfected CEM cells
Quantity Kind: pIC50
Give bare numbers, as −log10 of the molar value.

Take a look at these entries with their results.
COc1cccc(/C=C2\S/C(=N/Nc3nc(C)c(C)s3)NC2=O)c1O    3.89
Oc1ccc(-c2cc(-c3cc(-c4ccc(O)cc4)no3)on2)cc1    5.20
CO[C@H]1/C=C/O[C@@]2(C)Oc3c(C)c(O)c4c(O)c(c(/C=N/N5C(C)CN(Cc6ccc(C#N)cc6)CC5C)c(O)c4c3C2=O)NC(=O)/C(C)=C\C=C\[C@H](C)[C@H](O)[C@@H](C)[C@@H](O)[C@@H](C)[C@H](OC(C)=O)[C@@H]1C (some centres undefined)    5.04

For every item below, please supply its pIC50.
1. Cc1ccc(C2(O)c3ccccc3N=NN2C)cc1 (centres undefined)
2. Cc1ccc(NC(=S)NNC(=O)c2cc(-c3ccccc3)nc3ccccc23)cc1
3. CN(C)Cc1cc(N=Nc2ccccc2Cl)ccc1O
4. CN(CC(O)C(O)C(O)C(O)CO)CN1C(=O)C(=O)c2ccccc21 (centres undefined)
5. COc1cc(/C=C2/SC(c3ccccc3)N(Cc3ccccc3)C2=O)cc(OC)c1OC (centres undefined)
6. S=C(N/N=C(/c1ccccc1)c1ccccn1)Nc1ccc(Cl)cc1
7. CCOC(=O)CN1CCNCCN(CC(=O)OCC)CCNCC1
8. COC(=O)/C=C/C(=N/Nc1ccccc1)c1ccccc1

Response given:
3.98
4.89
4.99
4.46
4.59
6.91
5.01
4.54
